- Test system: H1299 T18
- measurement-description: MTS cell viability assay, H1299 T18 resistant variant vs H1299 Parental
- Format: cell-based, human
- test-parameters: SR = [IC50 of Parental]/[IC50 of Resistant]; H1299 T18 vs H1299 Parental
readout-type: H1299 T18 SR (Selectivity Ratio)
Answers are plain numbers.

CC(=O)O[C@H]1C(=O)[C@@]2(C)[C@H]([C@H](OC(=O)c3ccccc3)[C@]3(O)C[C@H](OC(=O)[C@H](O)[C@@H](NC(=O)c4ccccc4)c4ccccc4)C(C)=C1C3(C)C)[C@]1(OC(C)=O)CO[C@@H]1C[C@@H]2O	0.03
O=C(CCCCCN1C(=O)c2cccc3cccc(c23)C1=O)NO	1.5
Nc1ncn([C@@H]2O[C@H](CO)[C@@H](O)[C@H]2O)c(=O)n1	0.2
CN(C)c1ccc(C(=O)NCCCCCCC(=O)NO)cc1	1.1

Please give H1299 T18 SR (Selectivity Ratio), item by item, for the list that follows.
1. CC[C@H](C)n1cc(C)c2c(C(=O)NCc3c(C)cc(C)[nH]c3=O)cc(-c3ccc(N4CCNCC4)nc3)cc21
2. Cc1sc2c(c1C)C(c1ccc(Cl)cc1)=N[C@@H](CC(=O)OC(C)(C)C)c1nnc(C)n1-2
3. CCCC(CCC)C(=O)O
4. NC1CC1c1ccccc1 (centres unmarked)

Result block:
1: 1.0; 2: 0.6; 3: 1.4; 4: 1.3
